Every entry's value here was drawn from PubChem BioAssay AID330.

Tested on: P388 leukemia ip, CD2F1 mice, survival T/C
Experimental protocol: NCI In Vivo Anticancer Drug Screen. Data for tumor model P388 Leukemia (intraperitoneal) in CD2F1 (CDF1) mice
Reported conditions: endpoint: median survival time; dose: 200.0 mg/kg/injection; schedule: Q04DX003 (ip); vehicle: saline with Tween-80
Toxic doses and inconclusive results are not listed. How the source made its calls: active means survival T/C of 150% or more; inactive means T/C below 125% in these data.
Classes used: active, inactive

{"columns": ["Compound", "Qualitative label"],
 "data": [
  ["O=c1[nH]cnc2cc(N3CCOCC3)c([N+](=O)[O-])cc12", "inactive"],
  ["COC(=O)CCc1ccc(NP(=O)(N2CC2)N2CC2)cc1", "active"],
  ["O=c1cc(Cc2ccccc2)[nH]c(=S)[nH]1", "inactive"],
  ["COc1ccc(C2CCc3cc4c(cc3C2=O)OCO4)cc1OC (stereo not given)", "inactive"],
  ["CCCCCCCCCCCCCCCCCCCCCC(=O)OC", "inactive"],
  ["CCCCCCCCCCCCn1ccnc1", "inactive"],
  ["CCN(CC)CCN1C(=O)CN=C(c2ccc[nH]2)c2cc(Cl)ccc21", "inactive"],
  ["CCN(CC)c1nc(Cl)nc(NC(C)C)n1", "inactive"],
  ["O=C1OC2=C(CCCC2)C(N2CCCCC2)C12SCCCS2 (stereo not given)", "inactive"],
  ["COc1cc2cc3c4cc(OC)c(OC)cc4cc[n+]3c(C)c2cc1OC (tested in a mixture with another compound)", "active"]
]}
